- system: GCGR (Homo sapiens, UniProt P47871)
- Construct: purchased Promega (in-house HiBiT-GPCR construct library, NanoBRET)
- Sequence (P47871 26-477): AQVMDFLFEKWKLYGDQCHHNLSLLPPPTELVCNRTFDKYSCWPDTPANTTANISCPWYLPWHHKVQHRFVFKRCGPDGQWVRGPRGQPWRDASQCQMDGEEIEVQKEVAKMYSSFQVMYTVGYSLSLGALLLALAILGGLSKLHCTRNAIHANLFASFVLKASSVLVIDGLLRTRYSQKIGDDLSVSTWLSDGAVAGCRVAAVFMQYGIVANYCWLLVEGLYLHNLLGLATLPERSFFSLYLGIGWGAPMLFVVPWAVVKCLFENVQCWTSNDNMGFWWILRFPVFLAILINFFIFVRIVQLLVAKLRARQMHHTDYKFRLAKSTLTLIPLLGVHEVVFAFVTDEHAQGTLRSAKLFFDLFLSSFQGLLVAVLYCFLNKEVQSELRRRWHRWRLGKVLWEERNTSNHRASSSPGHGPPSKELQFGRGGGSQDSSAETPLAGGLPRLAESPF
- assay explanation: NanoBRET screen HiBiT-GCGR in HEK293
- Assay type: binding
- test conditions: GCGR; tracer 0.1μM
Label 1 for high-side NanoBRET Fold Response (at or above 0.9) and 0 for low-side NanoBRET Fold Response (below it).

Observe how each entry below is paired with its result.
CC(C)N(CC[C@H](c1ccccc1)c1cc(CCNC(=O)CCOCCOCCOCCOCCNC(=O)CCc2ccc3n2[B-](F)(F)[N+]2=C(c4ccc[nH]4)C=CC2=C3)ccc1O)C(C)C | 1
CC(C)N(CC[C@H](c1ccccc1)c1cc(CCNC(=O)c2ccc(CNC(=O)CCc3ccc4n3[B-](F)(F)[N+]3=C(c5ccc[nH]5)C=CC3=C4)cc2)ccc1O)C(C)C | 0
O=C(CCc1ccc2n1[B-](F)(F)[N+]1=C(c3ccc[nH]3)C=CC1=C2)NCCOCCOCCNC(=O)OCCOCCN1CCN(C2=Nc3ccccc3Sc3ccccc32)CC1 | 1
O=C(CCOCCOCCOCCOCCNC(=O)CCc1ccc2n1[B-](F)(F)[N+]1=C(c3ccc[nH]3)C=CC1=C2)NCCCN1CCN(C2=Nc3ccccc3Oc3ccc(Cl)cc32)CC1 | 1
Cc1nc2n(c(=O)c1CCN1CCC(c3noc4cc(F)ccc34)CC1)CCCC2OC(=O)NCCOCCOCCOCCOCCNC(=O)CCc1ccc2n1[B-](F)(F)[N+]1=C(c3ccc[nH]3)C=CC1=C2 (stereo not shown) | 1

QUERY: Hi, just wondering whether "CCCn1c(=O)c2[nH]c(-c3ccc(OCC(=O)NCCNC(=O)CCOCCNC(=O)c4ccc(CNC(=O)CCc5ccc6n5[B-](F)(F)[N+]5=C(c7ccc[nH]7)C=CC5=C6)cc4)cc3)nc2n(CCC)c1=O" shows NanoBRET Fold Response of 0.9 or higher.
RESULT: 1

QUERY: Hi, just wondering whether "COc1ccccc1N1CCN(CCCCN2C(=O)c3ccc(CNC(=O)CCOCCNC(=O)c4ccc(CNC(=O)CCc5ccc6n5[B-](F)(F)[N+]5=C(c7ccc[nH]7)C=CC5=C6)cc4)cc3C2=O)CC1" shows NanoBRET Fold Response of 0.9 or higher.
RESULT: 0
